B1: TBX5 (parent)
chain: FHEVGTEMIITKAGRRMFPSYKVK

Variants of: B1
Test: protein stability index of a GFP-peptide fusion (GPS, HEK-293T) (PSI 1-6); higher = more stable;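 further: lentivirally expressed fusions sorted by FACS into six bins by GFP to DsRed ratio, PSI derived from sequencing read proportions per bin multiplied by bin number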
Conditions: c terminus: a fixed tail appended
Give Yes when the value for protein stability index is at least 2. Give No when it is less.

Worked examples, 3 variants total:
1. R15G = No
2. R16G = Yes
3. S20M = Yes

Exam item: decide whether the reported protein stability index for E3C is at least 2. Yes

Cited source: the supplement of paper PMC10567573
